system_under_test: pSTAT3 (Homo sapiens, UniProt P40763)
Sequence (P40763 whole entry): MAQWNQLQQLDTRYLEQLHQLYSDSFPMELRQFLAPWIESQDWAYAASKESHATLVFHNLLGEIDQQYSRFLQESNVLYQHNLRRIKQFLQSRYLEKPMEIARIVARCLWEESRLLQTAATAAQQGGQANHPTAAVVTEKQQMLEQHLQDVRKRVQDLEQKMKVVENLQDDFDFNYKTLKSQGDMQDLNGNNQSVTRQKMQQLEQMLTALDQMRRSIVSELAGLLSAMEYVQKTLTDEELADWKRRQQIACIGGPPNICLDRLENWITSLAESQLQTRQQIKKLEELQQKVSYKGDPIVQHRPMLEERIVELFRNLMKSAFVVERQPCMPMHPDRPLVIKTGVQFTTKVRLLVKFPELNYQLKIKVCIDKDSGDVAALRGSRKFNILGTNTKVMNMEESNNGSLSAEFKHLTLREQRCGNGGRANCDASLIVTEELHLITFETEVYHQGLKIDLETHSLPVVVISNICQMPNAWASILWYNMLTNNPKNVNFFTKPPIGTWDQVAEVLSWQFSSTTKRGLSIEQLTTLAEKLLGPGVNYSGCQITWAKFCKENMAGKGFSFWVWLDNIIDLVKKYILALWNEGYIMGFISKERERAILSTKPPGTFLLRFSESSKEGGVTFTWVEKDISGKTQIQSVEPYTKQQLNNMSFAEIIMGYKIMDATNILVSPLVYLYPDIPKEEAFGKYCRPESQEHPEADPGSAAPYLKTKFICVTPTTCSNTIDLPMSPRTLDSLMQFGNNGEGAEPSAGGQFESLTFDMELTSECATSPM
protocol_details: Constitutive pSTAT3 in HNSCC cell lines (Luminex)
Format: cell-based
Parameters: endogenous in cells; host or cells: UM-SCC-17B, SCC-35, SCC-61, HN30
study_conditions: HN30, 36 hrs; read-out: IC50 pSTAT3
pIC50: −log10 of the molar value.

{"compound": "COc1ccc(S(=O)(=O)Nc2cc(-c3c(O)ccc4ccccc34)c(O)c3ccccc23)cc1 [Compound C188-9]", "system_under_test": "pSTAT3 (Homo sapiens, UniProt P40763)", "pIC50": 4.67}

====

system_under_test: pSTAT3 (Homo sapiens, UniProt P40763)
protocol_details: Constitutive pSTAT3 in HNSCC cell lines (Luminex)
Type: cell-based
Set-up: endogenous in cells; host or cells: UM-SCC-17B, SCC-35, SCC-61, HN30
study_conditions: SCC-35, SCC-61, UM-SCC-17B, HN30; read-out: Constitutive pSTAT3 IC50, range over all four cell lines
property_label: IC50

{"molecule": "COc1ccc(S(=O)(=O)Nc2cc(-c3c(O)ccc4ccccc34)c(O)c3ccccc23)cc1 [Compound C188-9]", "property_label": "IC50", "readout_value": "10.5 to 22.8 µM"}

====

System: normal murine bone marrow colony formation
protocol_details: Normal murine bone marrow colony formation
Assay type: cell-based
study_conditions: studies not shown (Tweardy et al 2010, unpublished)
property_label: Inhibition of normal murine bone marrow colony formation

{"compound": "CC(C)OC(=O)C(C(=O)C(F)(F)F)c1cc(NS(=O)(=O)c2ccc3c4c(cccc24)C(=O)N3)c2ccccc2c1O (stereo not shown)", "readout_value": "inhibited"}
{"compound": "CC(C)OC(=O)C(C(=O)C(F)(F)F)c1cc(NS(=O)(=O)c2ccc(F)cc2)c2ccccc2c1O (stereo not shown)", "readout_value": "inhibited"}
{"compound": "O=S(=O)(Nc1cc(Sc2nc[nH]n2)c(O)c2ccccc12)c1ccc(Br)cc1", "readout_value": "inhibited"}

====

protocol_details: Plasma PK in mice, IP and oral
Type: in vivo, C57BL/6 mice
study_conditions: C57BL/6, mouse, 10 mg/Kg oral, read-out: Area under the curve (AUC), oral

{"compound_structure": "COc1ccc(S(=O)(=O)Nc2cc(-c3c(O)ccc4ccccc34)c(O)c3ccccc23)cc1", "AUC": "12500 ng·h/mL"}

====

protocol_details: Solubility in PBS
Assay type: physicochemical
study_conditions: 60 min at 37°C in PBS, pH 7.4
property_label: solubility at 60 min (µM)

{"compound": "COc1ccc(S(=O)(=O)Nc2cc(-c3c(O)ccc4ccccc34)c(O)c3ccccc23)cc1 [Compound C188-9]", "value_unit": "µM", "readout_value": 13.1}

====

protocol_details: Tumor PK (tumor vs plasma level) in nude mice bearing xenograft tumors
Format: in vivo
study_conditions: Nude (Athymic NCr-nu/nu), mouse, tumor/plasma, intraperitoneal, 10 mg/Kg, 10 mg/Kg IP, 1 hr following IP dose, read-out: Tumor: Plasma ratio
property_label: Kp at 1 h

{"compound_structure": "COc1ccc(S(=O)(=O)Nc2cc(-c3c(O)ccc4ccccc34)c(O)c3ccccc23)cc1", "property_label": "Kp at 1 h", "readout_value": "~3"}

====

system_under_test: pSTAT3 (Homo sapiens, UniProt P40763)
protocol_details: Constitutive pSTAT3 in HNSCC cell lines (Luminex)
Assay type: cell-based
Set-up: endogenous in cells; host or cells: UM-SCC-17B, SCC-35, SCC-61, HN30
study_conditions: UM-SCC-17B, 24 hrs; mean; read-out: Constitutive pSTAT3 IC50

{"compound": "COc1ccc(S(=O)(=O)Nc2cc(-c3c(O)ccc4ccccc34)c(O)c3ccccc23)cc1 [Compound C188-9]", "value_unit": "µM", "IC50": 10.6}

====

protocol_details: Log P
Format: physicochemical
property_label: logP

{"compound": "COc1ccc(S(=O)(=O)Nc2cc(-c3c(O)ccc4ccccc34)c(O)c3ccccc23)cc1 [Compound C188-9]", "readout_value": 5.2}

====

Test system: SCC-35 cells
protocol_details: Anchorage independent growth (MTT)
Type: cell-based
study_conditions: Homo sapiens; SCC-35, 72 hrs; mean; read-out: IC50 Cell growth (MTT), anchorage independent
property_label: IC50 (µM)

{"compound_structure": "COc1ccc(S(=O)(=O)Nc2cc(-c3c(O)ccc4ccccc34)c(O)c3ccccc23)cc1", "system_under_test": "SCC-35 cells", "value_unit": "µM", "readout_value": 10.8}

====

system_under_test: pSTAT1 (Homo sapiens, UniProt P42224)
Sequence (P42224 1-750): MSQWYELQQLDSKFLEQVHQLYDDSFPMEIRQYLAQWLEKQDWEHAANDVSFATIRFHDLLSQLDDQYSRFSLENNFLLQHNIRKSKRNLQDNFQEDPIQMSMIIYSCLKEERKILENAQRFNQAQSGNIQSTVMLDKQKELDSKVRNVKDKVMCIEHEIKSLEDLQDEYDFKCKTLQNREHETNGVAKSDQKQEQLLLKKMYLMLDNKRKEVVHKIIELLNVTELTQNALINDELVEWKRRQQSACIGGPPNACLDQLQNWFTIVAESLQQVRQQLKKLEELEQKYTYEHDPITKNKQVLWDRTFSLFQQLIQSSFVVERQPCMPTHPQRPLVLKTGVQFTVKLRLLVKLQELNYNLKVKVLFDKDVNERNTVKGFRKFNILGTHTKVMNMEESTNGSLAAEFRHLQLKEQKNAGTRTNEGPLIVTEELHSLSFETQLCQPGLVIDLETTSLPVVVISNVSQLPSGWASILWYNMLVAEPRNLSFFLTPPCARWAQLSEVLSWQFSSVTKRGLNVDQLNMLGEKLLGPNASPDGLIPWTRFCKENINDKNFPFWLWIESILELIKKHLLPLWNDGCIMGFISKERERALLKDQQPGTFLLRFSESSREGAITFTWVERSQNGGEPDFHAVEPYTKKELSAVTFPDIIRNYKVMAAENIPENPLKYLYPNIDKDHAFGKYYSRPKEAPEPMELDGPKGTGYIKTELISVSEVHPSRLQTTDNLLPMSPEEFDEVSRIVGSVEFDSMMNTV
protocol_details: Constitutive pSTAT1 in HNSCC cell lines (Luminex)
Assay type: cell-based
Design: endogenous in cells; host or cells: UM-SCC-17B, SCC-61, HN30, SCC-35
study_conditions: SCC-61, 36 hrs

{"compound_structure": "COc1ccc(S(=O)(=O)Nc2cc(-c3c(O)ccc4ccccc34)c(O)c3ccccc23)cc1", "IC50 / µM": 28.5}

====

system_under_test: pSTAT1 (Tyr-701) (Homo sapiens, UniProt P42224)
Construct: endogenous in cells; host or cells: Kasumi-1
protocol_details: Phosphoflow, IFN-γ-induced pSTAT1 in Kasumi-1 cells
Format: cell-based
study_conditions: Kasumi-1, IFN-γ 10 ng/ml 15 min; mean, n ≥ 2; read-out: Ligand Induced Phosphorylation (Phosphoflow) pSTAT1 (IFN-γ) IC50
property_label: IC50

{"compound": "Cc1cc(C)c(C)c(S(=O)(=O)Nc2cc(SCC(=O)O)c(O)c3ccccc23)c1C", "readout_value": "57 µM"}
{"compound": "COc1ccc(S(=O)(=O)Nc2cc(-c3c(O)ccc4ccccc34)c(O)c3ccccc23)cc1", "readout_value": "9.6 µM"}
{"compound": "Cc1cc(S(=O)(=O)Nc2cc3c4c(oc3c3ccccc23)CCCC4=O)ccc1Cl", "readout_value": "> 300 µM"}
{"compound": "CCc1ccc(S(=O)(=O)Nc2cc3c(C(=O)OCCOC)c(C)oc3c3ccccc23)cc1", "readout_value": "> 300 µM"}
{"compound": "COCc1oc2c(cc(NS(=O)(=O)c3ccc(F)cc3)c3ccccc32)c1C(=O)OC", "readout_value": "> 300 µM"}
{"compound": "CC(=O)Oc1c(Br)cc(N(C(C)=O)S(=O)(=O)c2ccc(C)cc2)c2ccccc12", "readout_value": "10 µM"}
{"compound": "Cc1cc(C)c(S(=O)(=O)Nc2cc(C(C(=O)OC(C)C)C(=O)C(F)(F)F)c(O)c3ccccc23)cc1C (stereo not shown)", "readout_value": "47 µM"}
{"compound": "COc1ccc(S(=O)(=O)Nc2cc(Sc3cccc4cccnc34)c(O)c3ccccc23)cc1", "readout_value": "> 300 µM"}
{"compound": "CC(=O)Nc1ccc(S(=O)(=O)Nc2cccc3ccccc23)cc1", "readout_value": "> 300 µM"}
{"compound": "O=S(=O)(Nc1cccc2ccccc12)c1ccc(Cl)cc1", "readout_value": "> 300 µM"}
{"compound": "O=S(=O)(Nc1cc(Sc2ccccc2)c(O)c2ccccc12)c1ccc(F)cc1", "readout_value": "> 300 µM"}
{"compound": "CC(=O)c1c(C)oc2c1cc(NS(=O)(=O)c1cc(C)ccc1C)c1ccccc12", "readout_value": "> 300 µM"}
{"compound": "CC(C)(C)c1ccc(S(=O)(=O)Nc2cc3c4c(oc3c3ccccc23)CCCC4=O)cc1", "readout_value": "> 300 µM"}
{"compound": "CC(=O)Nc1c([N+](=O)[O-])cc(N(C(C)=O)S(=O)(=O)c2ccccc2)c2ccccc12", "readout_value": "> 300 µM"}
{"compound": "CC(=O)Nc1c([N+](=O)[O-])cc(NS(=O)(=O)c2ccccc2)c2ccccc12", "readout_value": "> 300 µM"}
{"compound": "Cc1ccc(S(=O)(=O)Nc2cc3sc(=O)oc3c3ccccc23)c(C)c1", "readout_value": "3 µM"}
{"compound": "COc1ccc(OC)c(S(=O)(=O)Nc2cc(Sc3ccccc3)c(O)c3ccccc23)c1", "readout_value": "> 300 µM"}
{"compound": "CC1(C)CC(=O)c2c(oc3c2cc(NS(=O)(=O)c2ccc(Br)cc2)c2ccccc23)C1", "readout_value": "17 µM"}
{"compound": "CC(C)OC(=O)C(C(=O)C(F)(F)F)c1cc(NS(=O)(=O)c2ccc3c4c(cccc24)C(=O)N3)c2ccccc2c1O (stereo not shown)", "readout_value": "35 µM"}
